B1: SERPINB5 (parent)
chain: FPESETKECPFRVNKVCGAACSSK

Variants of: B1
experiment_notes: protein stability index of a GFP-peptide fusion (GPS, HEK-293T) (PSI 1-6); higher = more stable;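 also: lentivirally expressed fusions sorted by FACS into six bins by GFP to DsRed ratio, PSI derived from sequencing read proportions per bin multiplied by bin number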
test_conditions: c terminus: a fixed tail appended
recorded_metric: protein stability index
Just the number, please, no unit after it.

{"mutant_designation": "V16P", "protein stability index": 2.11}

// switching to the query variant
Looking up `G18H` , I found its protein stability index recorded as 2.59

Just for reference, the supplement of paper PMC10567573 is where these values come from.
